Test system: rabbit skeletal myofibrils (fast skeletal myofibrils)
Assay: Activation of fast skeletal myofibrils (PUMA assay, PK/LDH-coupled ATPase at pCa25)
Assay type: biochemical
Conditions: median AC1.4 reported as class; procedure of Example 39
experimental-readout: Mean AC1.4

Examples from the recorded data:
Q) Fill in the blank: the reported Mean AC1.4 of NC(=O)c1cc(-c2ccc(NC[C@]3(c4ncccc4F)C[C@H](F)C3)nn2)ccc1O is ____.
A) A (A=<1 uM)

Q) Request: NC(=O)c1coc(NC(=O)c2ccc(NCC3(c4ncccc4F)CCC3)nn2)n1
A) D (D=>20 uM)

Q) Request: NC(=O)Cc1ccc(F)c(-c2ccc(NCC3(c4ncccc4F)CCC3)nn2)c1
A) B (B=1-10 uM)

Q) Request: N#Cc1cn[nH]c1NC(=O)c1ccc(NCC2(c3ncccc3F)CCC2)nn1
A) B (B=1-10 uM)

Q) Request: Cc1cc(C#N)c(O)c(-c2ccc(NCC3(c4ncccc4F)CCC3)nn2)c1
A) B (B=1-10 uM)

***
Q) Fill in the blank: the reported Mean AC1.4 of CS(=O)(=O)N1CCc2nc(-c3ccc(NCC4(c5ncccc5F)CCC4)nn3)sc2C1 is ____.
A) D (D=>20 uM)

Q) Request: COc1c(C#N)cccc1-c1ccc(NC[C@]2(c3ncccc3F)C[C@H](F)C2)nn1
A) C (C=10-20 uM)

---

Test system: rabbit skeletal myofibrils (fast skeletal myofibrils)
Assay: Activation of fast skeletal myofibrils (PUMA assay, PK/LDH-coupled ATPase at pCa25)
Assay type: biochemical
Settings: median AC1.4 class, procedure of Example 39
experimental-readout: Mean AC1.4

Examples from the recorded data:
Q) Hi! What's the reported Mean AC1.4 for O=C(c1cnc(-c2ccc(NCC3(c4ncccc4F)CCC3)nn2)s1)N1CCCC(O)C1 (centres unmarked) on rabbit skeletal myofibrils (fast skeletal myofibrils)?
A) C (C=10-20 uM)

Q) Request: CC(C)(O)c1ccc(NCC2(c3ncccc3F)CCC2)nn1
A) D (D=>20 uM)

Q) Request: Fc1ccc(C2(Nc3ccc(-c4ccncc4)nn3)CCC2)cc1
A) B (B=1-10 uM)

Q) Request: NC(=O)c1ccc(F)c(-c2ccc(NC3(c4ncccc4Br)CCC3)nn2)c1
A) A (A=<1 uM)

Q) Request: NC(=O)Nc1ccc(-c2ccc(NC3(c4ncccc4F)CCC3)nn2)cc1
A) B (B=1-10 uM)

***
Q) Hi! What's the reported Mean AC1.4 for N#Cc1ccc(C2(Nc3ccc(-c4cc(C(N)=O)ccc4F)nn3)CCC2)nc1 on rabbit skeletal myofibrils (fast skeletal myofibrils)?
A) D (D=>20 uM)

---

Test system: rabbit skeletal myofibrils (fast skeletal myofibrils)
Experiment: Activation of fast skeletal myofibrils (PUMA assay, PK/LDH-coupled ATPase at pCa25)
Type: biochemical
Details: median AC1.4 reported as class; procedure of Example 39
experimental-readout: Mean AC1.4

Q) Hi! What's the reported Mean AC1.4 for N#Cc1cccc(-c2ccc(NC[C@]3(c4ncccc4F)C[C@H](F)C3)nn2)c1O on rabbit skeletal myofibrils (fast skeletal myofibrils)?
A) B (B=1-10 uM)

Q) Request: CN(C)C(=O)c1ccc(F)c(-c2ccc(NC[C@]3(c4ncccc4F)C[C@H](F)C3)nn2)c1
A) B (B=1-10 uM)

Q) Request: NC(=O)c1cc(Cl)cc(-c2ccc(NC[C@]3(c4ncccc4F)C[C@H](F)C3)nn2)c1
A) B (B=1-10 uM)
